biological target: Sodium- and chloride-dependent GABA transporter 1 (Mus musculus); assay: Inhibition of NO711 binding to mouse GAT1 expressed in HEK293 cell membranes assessed as residual binding at 1 uM preincubated for 4 hrs followed by NO711 addition and measured after 40 mins by LC-ESI-MS/MS analysis relative to control
Returns: string. Value is 1 (yes) if measured Activity is below 80%, and 0 (no) if it is greater than or equal to it.

O=C(O)[C@H]1CNC[C@@H](CCN/N=C/c2ccc(-c3ccccc3)o2)C1 (racemic) : 1 (yes)
O=Cc1ccc(-c2ccccc2)[nH]1 : 0 (no)
Cn1c(C=O)ccc1-c1ccc(Cl)cc1 : 0 (no)
Cc1ccc(-c2ccsc2/C=N/NCC[C@@H]2CNC[C@H](C(=O)O)C2)cc1 (racemic) : 0 (no)
O=C(O)[C@H]1CNC[C@@H](CN/N=C/c2cnc(SCc3ccccc3)nc2)C1 (racemic) : 1 (yes)
O=Cc1cccs1 : 0 (no)
O=Cc1sccc1-c1ccc(C(F)(F)F)cc1C(F)(F)F : 0 (no)
Cc1ccc(-c2ccsc2C=O)c(C)c1 : 0 (no)
O=Cc1ccccc1-c1cc(F)cc(F)c1 : 0 (no)
O=Cc1cccc(-c2ccc(F)cc2)c1 : 0 (no)
O=C(O)[C@H]1CNC[C@@H](CN/N=C/c2ccc(-c3ccccc3C(F)(F)F)o2)C1 (racemic) : 1 (yes)
O=C(O)[C@H]1CNC[C@@H](CN/N=C/c2ccc(-c3cccc(Cl)c3)o2)C1 (racemic) : 1 (yes)
O=C(O)[C@H]1CNC[C@@H](CN/N=C/c2cnc(-c3ccccc3)nc2)C1 (racemic) : 1 (yes)
O=C(O)[C@H]1CNC[C@@H](CCN/N=C/c2ccc(-c3ccc(C(F)(F)F)cc3Cl)o2)C1 (racemic) : 1 (yes)
O=C(O)[C@H]1CNC[C@@H](CN/N=C/c2ccc(-c3ccccc3)[nH]2)C1 (racemic) : 0 (no)
O=Cc1ccc(-c2ccc(Cl)cc2Cl)o1 : 0 (no)
O=C(O)[C@H]1CNC[C@@H](CCN/N=C/c2csc3ccccc23)C1 (racemic) : 1 (yes)
O=C(O)[C@H]1CNC[C@@H](CN/N=C/c2cnc(-c3cccc4ccccc34)nc2)C1 (racemic) : 1 (yes)
